Assay: chemical genetic growth profiling, strain panel (AID 1159580);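 also: tested at 20 µM; growth read once vehicle control cultures reached saturation at 30 °C; 1 = growth at the plate median or of vehicle wells; lower values mean less growth of the strain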
Details: S. cerevisiae deletion strains, growth OD, locus YNL183C, strain NPR1
In all, about 5,500 compounds went through this assay and about 2,000 (36%) were called active. Not shown: some 18% with an inconclusive outcome. Rule as the data show it: active = normalized growth mostly below about 0.91 (no sharp cut-off); inconclusive = no clear call, values can overlap the other calls; inactive = mostly above about 0.92. The list shows a part of the results.
The reply should be one of these categories: active, inactive

// known answers, use as guide
| Molecule | Class assignment |
| --- | --- |
| Nc1c2c(nc3ccccc13)CCCC2 | inactive |
| Cc1csc(NC(=O)Nc2ccc(C(F)(F)F)cc2)c1 | inactive |
| COC(=O)Nc1nc2ccc(Sc3ccccc3)cc2[nH]1 | inactive |
| COC(=O)Nc1nc2ccc(C(=O)c3ccccc3)cc2[nH]1 | active |

Which outcome was assigned to CN1[C@@H]2CC[C@@H]1CC(O)C2 (stereo partly specified) in this test?
inactive

Tell me the assay call for `NNc1nncc2ccccc12` please.
inactive

Hello, I am checking results. What call was entered for `NC12CC3CC(CC(C3)C1)C2` ?
inactive

Which outcome was entered for the molecule `O=C(CSCc1csc2ccccc12)Nc1ccc(F)c(Cl)c1` in this test?
inactive

Please share the test call associated with `S=C(Nc1ccc(Cl)cc1)SCc1c(Cl)cccc1Cl` .
inactive

Per the records of this test, what outcome belongs to `O=[N+]([O-])c1ccc(S(=O)(=O)c2ccccc2)nc1S(=O)(=O)c1ccccc1` ?
active

Returns: the outcome recorded for COC(=O)Nc1nc2ccc(S(=O)c3ccccc3)cc2[nH]1 (stereo unspecified) in this assay.
inactive

What classification did `O=C(NCCNc1ncc(Cl)cc1C(F)(F)F)C(F)(F)Sc1ccccc1` end up with in this test?
inactive

Query: recorded result category for `CC(=O)NCc1c(I)c(NC(C)=O)c(I)c(C(=O)O)c1I` in this test
inactive

Identify the outcome logged in this assay for the molecule shown: `CC(=O)Nc1c(I)c(NC(C)=O)c(I)c(C(=O)O)c1I`
inactive

Could you check what this test reported for `Cc1ccc(-c2cc(C(F)(F)F)nn2-c2ccc(S(N)(=O)=O)cc2)cc1` ?
inactive

Dear colleague, could you share the recorded outcome for `Nc1ccc(Sc2ccccc2)nc1Sc1ccccc1` when you have a moment?
inactive

---

normalized growth overview
Test: chemical genetic growth profiling, strain panel (AID 1159580);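 also: tested at 20 µM; growth read once vehicle control cultures reached saturation at 30 °C; 1 = growth at the plate median or of vehicle wells; lower values mean less growth of the strain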
Conditions: S. cerevisiae deletion strains, growth OD, locus YOL147C, strain pex11, active compounds read low
Screen size: about 5,500 compounds; about 2,000 (36%) were called active. Roughly 18% stayed inconclusive and do not appear here. The list shows a part of the results.
Answer with a number only.

| Compound | normalized growth |
| --- | --- |
| COc1cc(N)c(Cl)cc1C(=O)NC1CCN(Cc2ccccc2)CC1 | 0.996 |

Now look at this one.
Reported normalized growth for `Cc1cn([C@H]2C[C@H](N=[N+]=[N-])[C@@H](CO)O2)c(=O)[nH]c1=O` : what is it?
1.01

---

Experiment: chemical genetic growth profiling, strain panel (AID 1159580);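 also: tested at 20 µM; growth read once vehicle control cultures reached saturation at 30 °C; 1 = growth at the plate median or of vehicle wells; lower values mean less growth of the strain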
Conditions: S. cerevisiae deletion strains, growth OD, locus YNL183C, strain NPR1, active compounds read low
The campaign covered roughly 5,500 compounds. About 2,000 (36%) were called active. Roughly 18% stayed inconclusive and do not appear here. Some of the results follow.
Measured metric: normalized growth
Output: the number by itself.

// below: answered compounds
| Compound | normalized growth |
| --- | --- |
| Cc1ccc(S(=O)(=O)NC(=O)NN2CC3CCCC3C2)cc1 (stereo not drawn) | 0.92 |
| O=C(Nc1ccc(C(=O)O)c(O)c1)c1ccccc1 | 0.92 |

What value of normalized growth has been recorded for this entry: `Cc1cc(O)cc(C)c1Cl`
0.88
